- Experimental Protocol: Lapatinib pharmacokinetics in rat blood plasma (BP), HPLC-MS/MS, noncompartmental analysis
- Assay type: in vivo, rats
- Condition Description: male, Wistar, rat, plasma, po, 100 mg/kg, blood plasma; lapatinib 100 mg/kg oral + 5 mg/kg elacridar (IE+L)
Property: k el (s⁻¹)
Provide only the numeric value, understood in s⁻¹.

Short answer for CS(=O)(=O)CCNCc1ccc(-c2ccc3ncnc(Nc4ccc(OCc5cccc(F)c5)c(Cl)c4)c3c2)o1 : k el was 5.56e-06

----------
- Experimental Protocol: Lapatinib pharmacokinetics and uptake in rat cerebrospinal fluid (CSF)
- Assay type: in vivo, rats
- Condition Description: male, Wistar, rat, cerebrospinal fluid, oral, lapatinib 100 mg/kg + elacridar, 24 h; read-out: Clapatinib in CSF, S
Property: concentration at 24 h (ng/mL)
Provide only the numeric value, understood in ng/mL.

Short answer for CS(=O)(=O)CCNCc1ccc(-c2ccc3ncnc(Nc4ccc(OCc5cccc(F)c5)c(Cl)c4)c3c2)o1 : concentration at 24 h was 2.84

----------
- Experimental Protocol: Lapatinib pharmacokinetics and uptake in rat cerebrospinal fluid (CSF)
- Type: in vivo, rats
- Condition Description: male, Wistar, rat, cerebrospinal fluid, po, 100 mg/kg; lapatinib 100 mg/kg oral alone (IIL)
Property: AUC(0-inf) (ng·h/mL)
Provide only the numeric value, understood in ng·h/mL.

Short answer for CS(=O)(=O)CCNCc1ccc(-c2ccc3ncnc(Nc4ccc(OCc5cccc(F)c5)c(Cl)c4)c3c2)o1 : AUC(0-inf) was 252

----------
- Experimental Protocol: Lapatinib pharmacokinetics and uptake in rat brain tissue (BT)
- Format: in vivo, rats
- Condition Description: male, Wistar, rat, brain, po, 100 mg/kg, brain tissue; lapatinib 100 mg/kg oral + 5 mg/kg elacridar (IE+L)
- Description: This study was conducted on rats, which are a promising model to predict P-gp-based drug-drug interactions at the human BBB [15]. The animals were allowed to acclimate for one week before the beginning of the experiments. Adult male Wistar-strain rats (weight 470–525 g) were used in the study. […]
Property: Tmax
Lab note: write values as number then unit, every time.

Short answer for CS(=O)(=O)CCNCc1ccc(-c2ccc3ncnc(Nc4ccc(OCc5cccc(F)c5)c(Cl)c4)c3c2)o1 : Tmax was 3 h

----------
- Experimental Protocol: Lapatinib pharmacokinetics in rat blood plasma (BP), HPLC-MS/MS, noncompartmental analysis
- Format: in vivo, rats
- Condition Description: male, Wistar, rat, plasma, oral, lapatinib 100 mg/kg + elacridar, 0.25 h; read-out: Clapatinib in BP, S
- Experimental: This study was conducted on rats, which are a promising model to predict P-gp-based drug-drug interactions at the human BBB [15]. The animals were allowed to acclimate for one week before the beginning of the experiments. Adult male Wistar-strain rats (weight 470–525 g) were used in the study. […]
Property: concentration at 0.25 h (µg/mL)
Provide only the numeric value, understood in µg/mL.

Short answer for CS(=O)(=O)CCNCc1ccc(-c2ccc3ncnc(Nc4ccc(OCc5cccc(F)c5)c(Cl)c4)c3c2)o1 [lapatinib] : concentration at 0.25 h was 0.78

----------
- Experimental Protocol: Lapatinib pharmacokinetics and uptake in rat brain tissue (BT)
- Assay type: in vivo, rats
- Condition Description: male, Wistar, rat, brain, oral, lapatinib 100 mg/kg + elacridar, 3 h; read-out: Clapatinib in BT, single rat
Property: concentration at 3 h (ng/mL)
Provide only the numeric value, understood in ng/mL.

Short answer for CS(=O)(=O)CCNCc1ccc(-c2ccc3ncnc(Nc4ccc(OCc5cccc(F)c5)c(Cl)c4)c3c2)o1 : concentration at 3 h was 198
